Measured EC50, listed per entry.
# Test system: melanoma cell line MelJuso
# Measurement protocol: Annexin V/PI assay, MelJuso
# Format: cell-based
# Test parameters: Homo sapiens, MEL-JUSO, 24 h
Numbers only; they are read as µM.

O=C(Oc1ccc(CO[N+](=O)[O-])cc1)c1cccc2ccccc12 [B13, 4-((nitrooxy)methyl)phenyl 1-naphthoate] ... 57.5

Exercise: What EC50 value was documented for this compound, O=C(Oc1ccc(CO[N+](=O)[O-])cc1)c1ccccc1 [B9, 4-((nitrooxy)methyl)phenyl benzoate] ?
Key: 8.76

Exercise: What EC50 value was documented for this compound, O=C(Oc1ccc(CCl)cc1)c1ccccc1 [B12, 4-(chloromethyl)phenyl benzoate] ?
Key: 4.79
